# Test system: Caki-2 cells
# protocol-text: CTG (CellTiter-Glo) cell viability assay, Caki-2
# Assay type: cell-based
# applied-conditions: Homo sapiens, CAKI-2, 72 h, Caki-2, 3-day; read-out: CTG Chempartner/PHA- Caki-2 3-day: Average external-IC50
# Procedure: Compound-mediated viability effect on MOLT-4 and Caki-2 was quantitatively determined using the CellTiter-Glo® Luminescent Cell Viability Assay kit from Promega (Catalog number G7570) following manufacturer's recommended procedures. […] The data was then analyzed by software Prism 7.0 from GraphPad and the dose response curves are fit using a three-parameter logistic equation to calculate IC50. […]
pIC50: −log10 of the molar value.
test-readout: pIC50

{"columns": ["compound", "value-measured"],
 "data": [
  ["Cc1ncsc1-c1ccc([C@H](C)NC(=O)[C@@H]2C[C@@H](O)CN2C(=O)[C@@H](NC(=O)C2CCN(c3ccc(NC(=O)c4ccc(-c5ccc(Cl)cc5)c([C@H](O)C5CCN(c6ccc(C(=O)NS(=O)(=O)c7ccc(N[C@H](CCN(C)CCO)CSc8ccccc8)c(S(=O)(=O)C(F)(F)F)c7)cc6)CC5)c4)cc3)CC2)C(C)(C)C)cc1 (single isomer, unassigned)", "< 4.52"],
  ["Cc1ncsc1-c1ccc([C@H](C)NC(=O)[C@@H]2C[C@@H](O)CN2C(=O)[C@@H](NC(=O)C2CCN(C3CCN(CCCNc4ccc(S(=O)(=O)NC(=O)c5ccc(N6CCN(CC7=C(c8ccc(Cl)cc8)CC(C)(C)CC7)CC6)cc5Oc5cnc6[nH]ccc6c5)cc4S(=O)(=O)C(F)(F)F)CC3)CC2)C(C)(C)C)cc1", "< 4.52"]
]}
